system: DU-145; test: Growth inhibition of human DU-145 cells assessed as cell growth at 0.1 uM incubated for 48 hrs by sulforhodamine B assay relative to control; format: functional; conditions: read-out: Activity
Here, each record is paired with measured growth at 0.1 µM data.
observation_type: growth at 0.1 µM (%)

- Cc1cc(C)c(NC(=O)c2sc3nc4c(cc3c2N)CN(Cc2ccccc2)CC4)c(C)c1: 101
- CCc1cccc(C)c1NC(=O)c1sc2nc3c(cc2c1N)C(=O)CCC3: 102
- Cc1ccc(NC(=O)c2sc3nc4c(cc3c2N)C(=O)CCC4)cc1C: 101
- CCc1ccccc1NC(=O)c1sc2nc3c(cc2c1N)C(=O)CCC3: 103
- Cc1cccc(NC(=O)c2sc3nc4c(cc3c2N)C(=O)CCC4)c1: 89
- CN1CCc2nc3sc(C(N)=O)c(N)c3c(-c3cccs3)c2C1: 115
- COc1cccc(NC(=O)c2sc3nc4c(cc3c2N)CN(Cc2ccccc2)CC4)c1: 104
- Nc1c(C(=O)Nc2ccccc2)sc2nc3c(cc12)CN(Cc1ccccc1)CC3: 107

###

system: SNB-19; assay: Growth inhibition of human SNB-19 cells assessed as cell growth at 10 uM incubated for 48 hrs by sulforhodamine B assay relative to control; assay type: functional; details: read-out: Activity
Here, each record is paired with measured growth at 10 µM data.
observation_type: growth at 10 µM (%)

• Cc1cccc(NC(=O)c2sc3nc4c(cc3c2N)CN(Cc2ccccc2)CC4)c1 = 110
• COc1ccc(S(=O)(=O)n2ccc(-c3ccc4c(c3)CCC(C)(C)O4)n2)cc1 = 87.1
• COc1ccc(-c2ccn(S(=O)(=O)c3ccc(OC)cc3)n2)cc1 = 96.8
• COc1ccc(S(=O)(=O)n2ccc(-c3ccc(OC(C)C)cc3)n2)cc1 = 100
• CCc1ccccc1NC(=O)c1sc2nc3c(cc2c1N)C(=O)CCC3 = 35
• Cc1ccc(S(=O)(=O)n2ccc(-c3ccc(OCCCF)cc3)n2)cc1 = 91.7
• CCOc1ccc(-c2cc(N)n(S(=O)(=O)c3ccc(OC)cc3)n2)cc1 = 96.3
• CC1(C)CCc2cc(-c3ccn(S(=O)(=O)c4ccc(C(F)(F)F)cc4)n3)ccc2O1 = 113
• Nc1c(C(=O)N(c2ccccc2)c2ccccc2)sc2nc3c(cc12)C(=O)CCC3 = 104
• COc1ccc(-c2ccn(S(=O)(=O)c3ccc(C)cc3)n2)cc1 = 94.5
• Nc1c(C(=O)Nc2ccccc2)sc2nc3c(cc12)CN(Cc1ccccc1)CC3 = 59
• Cc1ccc(NC(=O)c2sc3nc4c(cc3c2N)C(=O)CCC4)cc1C = 31
• CC1(C)CCc2cc(-c3ccn(S(=O)(=O)c4ccc(Cl)cc4Cl)n3)ccc2O1 = 87.2
• COc1ccc(S(=O)(=O)n2ccc(-c3ccc4c(c3)CCC(C)(C)O4)n2)cc1OC = 87.4
• CC(=O)Nc1ccc(S(=O)(=O)n2ccc(-c3ccc4c(c3)CCC(C)(C)O4)n2)cc1 = 73.3
• CC(=O)c1ccc2c(N)c(C(=O)Nc3ccccc3)sc2n1 = 105
• CN1CCc2nc3sc(C(N)=O)c(N)c3c(-c3cccs3)c2C1 = 19
• CC1(C)CCc2cc(-c3ccn(S(=O)(=O)c4ccccc4)n3)ccc2O1 = 94.1
• CC(=O)c1cccc(NC(=O)c2sc3nc4c(cc3c2N)C(=O)CCC4)c1 = 99.5
• O=S(=O)(c1ccccc1)n1ccc(-c2ccc3c(c2)CCO3)n1 = 83.4
• Cc1cc(C)cc(S(=O)(=O)n2ccc(-c3ccc4c(c3)CCC(C)(C)O4)n2)c1 = 94.6
• Cc1cccc(NC(=O)c2sc3nc4c(cc3c2N)C(=O)CCC4)c1 = 29
• COc1cccc(NC(=O)c2sc3nc4c(cc3c2N)CN(Cc2ccccc2)CC4)c1 = 35
• CC1(C)CCc2cc(-c3ccn(S(=O)(=O)c4ccc(C(C)(C)C)cc4)n3)ccc2O1 = 88.2
• Cc1cc(C)c(NC(=O)c2sc3nc4c(cc3c2N)CN(Cc2ccccc2)CC4)c(C)c1 = 44
• O=S(=O)(c1ccc(Br)cc1)n1ccc(-c2ccc(OCCCF)cc2)n1 = 95.5
• CC(C)N1CCc2nc3sc(C(=O)Nc4ccccc4)c(N)c3cc2C1 = 105
• CCc1cccc(C)c1NC(=O)c1sc2nc3c(cc2c1N)C(=O)CCC3 = 42

###

test system: HCC 2998; experiment: Growth inhibition of human HCC 2998 cells assessed as cell growth at 0.1 uM incubated for 48 hrs by sulforhodamine B assay relative to control; assay type: functional; settings: read-out: Activity
observation_type: growth at 0.1 µM (%)

• Cc1ccc(NC(=O)c2sc3nc4c(cc3c2N)C(=O)CCC4)cc1C = 93
• COc1cccc(NC(=O)c2sc3nc4c(cc3c2N)CN(Cc2ccccc2)CC4)c1 = 98
• Nc1c(C(=O)Nc2ccccc2)sc2nc3c(cc12)CN(Cc1ccccc1)CC3 = 97
• Cc1cccc(NC(=O)c2sc3nc4c(cc3c2N)C(=O)CCC4)c1 = 80
• CCc1ccccc1NC(=O)c1sc2nc3c(cc2c1N)C(=O)CCC3 = 96
• CCc1cccc(C)c1NC(=O)c1sc2nc3c(cc2c1N)C(=O)CCC3 = 100
• CN1CCc2nc3sc(C(N)=O)c(N)c3c(-c3cccs3)c2C1 = 99
• Cc1cc(C)c(NC(=O)c2sc3nc4c(cc3c2N)CN(Cc2ccccc2)CC4)c(C)c1 = 98

###

test system: MDA-MB-435; experiment: Growth inhibition of human MDA-MB-435 cells assessed as cell growth at 10 uM incubated for 48 hrs by sulforhodamine B assay relative to control; type: functional; settings: read-out: Activity
Here, each record is paired with measured growth at 10 µM data.
observation_type: growth at 10 µM (%)

• Cc1cccc(NC(=O)c2sc3nc4c(cc3c2N)C(=O)CCC4)c1 = -65
• COc1ccc(S(=O)(=O)n2ccc(-c3ccc4c(c3)CCC(C)(C)O4)n2)cc1OC = 79.6
• CC1(C)CCc2cc(-c3ccn(S(=O)(=O)c4ccccc4)n3)ccc2O1 = 79
• Nc1c(C(=O)N(c2ccccc2)c2ccccc2)sc2nc3c(cc12)C(=O)CCC3 = 110
• CCc1cccc(C)c1NC(=O)c1sc2nc3c(cc2c1N)C(=O)CCC3 = -36
• O=S(=O)(c1ccccc1)n1ccc(-c2ccc3c(c2)CCO3)n1 = 104
• CC1(C)CCc2cc(-c3ccn(S(=O)(=O)c4ccc(C(F)(F)F)cc4)n3)ccc2O1 = 96.6
• CC1(C)CCc2cc(-c3ccn(S(=O)(=O)c4ccc(C(C)(C)C)cc4)n3)ccc2O1 = 93
• COc1ccc(-c2ccn(S(=O)(=O)c3ccc(OC)cc3)n2)cc1 = 88.4
• Cc1ccc(S(=O)(=O)n2ccc(-c3ccc(OCCCF)cc3)n2)cc1 = 91.3

###

Here, each record is paired with measured growth at 100 µM data.
test system: CAKI-1; test: Growth inhibition of human CAKI-1 cells assessed as cell growth at 100 uM incubated for 48 hrs by sulforhodamine B assay relative to control; assay type: functional; conditions: read-out: Activity
observation_type: growth at 100 µM (%)

- Cc1cccc(NC(=O)c2sc3nc4c(cc3c2N)C(=O)CCC4)c1: -22
- CCc1ccccc1NC(=O)c1sc2nc3c(cc2c1N)C(=O)CCC3: 35
- Cc1ccc(NC(=O)c2sc3nc4c(cc3c2N)C(=O)CCC4)cc1C: 22
- CN1CCc2nc3sc(C(N)=O)c(N)c3c(-c3cccs3)c2C1: 7
- Cc1cc(C)c(NC(=O)c2sc3nc4c(cc3c2N)CN(Cc2ccccc2)CC4)c(C)c1: 4

###

system: ACHN; assay: Growth inhibition of human ACHN cells incubated for 48 hrs by sulforhodamine B assay; type: functional
Here, each record is paired with measured GI50 data.
observation_type: GI50 (nM)

- Nc1c(C(=O)Nc2ccccc2)sc2nc3c(cc12)CN(Cc1ccccc1)CC3: 5500
- CCc1cccc(C)c1NC(=O)c1sc2nc3c(cc2c1N)C(=O)CCC3: 795
- COc1cccc(NC(=O)c2sc3nc4c(cc3c2N)CN(Cc2ccccc2)CC4)c1: 3460
- CCc1ccccc1NC(=O)c1sc2nc3c(cc2c1N)C(=O)CCC3: 18.8
- Cc1ccc(NC(=O)c2sc3nc4c(cc3c2N)C(=O)CCC4)cc1C: 23.9
- Cc1cccc(NC(=O)c2sc3nc4c(cc3c2N)C(=O)CCC4)c1: 22.4
- Cc1cc(C)c(NC(=O)c2sc3nc4c(cc3c2N)CN(Cc2ccccc2)CC4)c(C)c1: 6310

###

test system: KM12; assay: Growth inhibition of human KM12 cells assessed as cell growth at 100 uM incubated for 48 hrs by sulforhodamine B assay relative to control; format: functional; settings: read-out: Activity
observation_type: growth at 100 µM (%)

* COc1cccc(NC(=O)c2sc3nc4c(cc3c2N)CN(Cc2ccccc2)CC4)c1 | -37
* Nc1c(C(=O)Nc2ccccc2)sc2nc3c(cc12)CN(Cc1ccccc1)CC3 | 25
* Cc1cc(C)c(NC(=O)c2sc3nc4c(cc3c2N)CN(Cc2ccccc2)CC4)c(C)c1 | -9
* CCc1ccccc1NC(=O)c1sc2nc3c(cc2c1N)C(=O)CCC3 | 13
* CCc1cccc(C)c1NC(=O)c1sc2nc3c(cc2c1N)C(=O)CCC3 | 4
* Cc1ccc(NC(=O)c2sc3nc4c(cc3c2N)C(=O)CCC4)cc1C | 9
* CN1CCc2nc3sc(C(N)=O)c(N)c3c(-c3cccs3)c2C1 | 2
* Cc1cccc(NC(=O)c2sc3nc4c(cc3c2N)C(=O)CCC4)c1 | -58
